Every entry's value here was drawn from patent US4582821A.

# Test system: erythroleukemia cell line K-562
# MEASUREMENT NOTES: Tumor cell line growth inhibition, K-562
# Format: cell-based
# ASSAY SETUP: 10. μg/mL, day 7
Peptide text beside a SMILES is read from it. * marks the point of attachment. Cbz = O=C(OCc1ccccc1)*; CH2Cl = ClC*
List of % Growth Relative to Control Cultures values.
The reply should be a number in %, with the unit left off.

MOLECULE | % Growth Relative to Control Cultures (%)
CC(=O)N[C@@H](Cc1ccccc1)C(=O)NCC(=O)N[C@@H](C)C(=O)N[C@@H](CC(C)C)C(=O)CCl [Ac-Phe-Gly-Ala-LeuCH2 Cl] (Ac-FGAL-CH2Cl) | 47
CC(C)C[C@H](NC(=O)OC(C)(C)C)C(=O)CCl | 3
CC(C)(C)OC(=O)N[C@@H](Cc1ccc(O)cc1)C(=O)CCl | 0
CC(C)CC(NC(=O)OC(C)(C)C)C(=O)CBr (stereo not drawn) | 13
CC(C)C[C@H](NC(=O)[C@H](CO)NC(=O)CNC(=O)[C@H](Cc1ccccc1)NC(=O)OCc1ccccc1)C(=O)CCl [Z--Phe-Gly-Ser-LeuCH2 Cl, Z-Phe-Gly-Ser-LeuCH2 Cl] (Cbz-FGSL-CH2Cl) | 65

Next up:
// Input: CC(C)C[C@H](NC(=O)[C@H](C)NC(=O)[C@H](CO)NC(=O)[C@H](Cc1ccccc1)NC(=O)OCc1ccccc1)C(=O)CCl [Z--Phe-Ser-Ala-LeuCH2 Cl, Z-Phe-Ser-Ala-LeuCH2 Cl] (Cbz-FSAL-CH2Cl) . Output its % Growth Relative to Control Cultures only.
7

---

List of % Growth Relative to Control Cultures values.
# Tested on: lymphoma cell line MOLT-4
# MEASUREMENT NOTES: Tumor cell line growth inhibition, MOLT-4
# Type: cell-based
# ASSAY SETUP: 10. μg/mL, day 7
Peptide text beside a SMILES is read from it. * marks the point of attachment. Cbz = O=C(OCc1ccccc1)*; CH2Cl = ClC*
The reply should be a number in %, with the unit left off.

Some solved entries appear below for comparison.
COMPOUND | EXPERIMENTAL SYSTEM | UNIT TEXT | % Growth Relative to Control Cultures
CC(C)C[C@H](NC(=O)[C@H](CO)NC(=O)CNC(=O)[C@H](Cc1ccccc1)NC(=O)OCc1ccccc1)C(=O)CCl [Z--Phe-Gly-Ser-LeuCH2 Cl, Z-Phe-Gly-Ser-LeuCH2 Cl] (Cbz-FGSL-CH2Cl) | lymphoma cell line MOLT-4 | % | 49
CC(C)C[C@H](NC(=O)[C@H](C)NC(=O)[C@H](CO)NC(=O)[C@H](Cc1ccccc1)NC(=O)OCc1ccccc1)C(=O)CCl [Z--Phe-Ser-Ala-LeuCH2 Cl, Z-Phe-Ser-Ala-LeuCH2 Cl] (Cbz-FSAL-CH2Cl) | lymphoma cell line MOLT-4 | % | 11
CC(C)C[C@H](NC(=O)OC(C)(C)C)C(=O)CCl [Boc-LeuCH2 Cl] | lymphoma cell line MOLT-4 | % | 4
CC(C)CC(NC(=O)OC(C)(C)C)C(=O)CBr (stereo not drawn) [Boc-LeuCH2 Br] | lymphoma cell line MOLT-4 | % | 14
CC(C)(C)OC(=O)N[C@@H](Cc1ccc(O)cc1)C(=O)CCl [Boc-TyrCH2 Cl] | lymphoma cell line MOLT-4 | % | 0

Next up:
// Input: CC(=O)N[C@@H](Cc1ccccc1)C(=O)NCC(=O)N[C@@H](C)C(=O)N[C@@H](CC(C)C)C(=O)CCl [Ac-Phe-Gly-Ala-LeuCH2 Cl] (Ac-FGAL-CH2Cl) . Output its % Growth Relative to Control Cultures only.
88

---

# Test system: lymphoma cell line MOLT-4
# MEASUREMENT NOTES: Tumor cell line growth inhibition, MOLT-4
# Format: cell-based
# ASSAY SETUP: 2.0 μg/mL, day 3
Peptide text beside a SMILES is read from it. * marks the point of attachment. Cbz = O=C(OCc1ccccc1)*; CH2Cl = ClC*
List of % Growth Relative to Control Cultures values.
The reply should be a number in %, with the unit left off.

MOLECULE | EXPERIMENTAL SYSTEM | % Growth Relative to Control Cultures (%)
CC(C)C[C@H](NC(=O)[C@H](CO)NC(=O)CNC(=O)[C@H](Cc1ccccc1)NC(=O)OCc1ccccc1)C(=O)CCl [Z--Phe-Gly-Ser-LeuCH2 Cl, Z-Phe-Gly-Ser-LeuCH2 Cl] (Cbz-FGSL-CH2Cl) | lymphoma cell line MOLT-4 | 87

Provide measured % Growth Relative to Control Cultures on lymphoma cell line MOLT-4 for CC(C)CC(NC(=O)OC(C)(C)C)C(=O)CBr (stereo not shown) [Boc-LeuCH2 Br] please.
31

Provide measured % Growth Relative to Control Cultures on lymphoma cell line MOLT-4 for CC(C)(C)OC(=O)N[C@@H](Cc1ccc(O)cc1)C(=O)CCl [Boc-TyrCH2 Cl] please.
17

Provide measured % Growth Relative to Control Cultures on lymphoma cell line MOLT-4 for CC(C)C[C@H](NC(=O)OC(C)(C)C)C(=O)CCl [Boc-LeuCH2 Cl] please.
10

---

# Test system: erythroleukemia cell line K-562
# MEASUREMENT NOTES: Tumor cell line growth inhibition, K-562
# Assay type: cell-based
# ASSAY SETUP: 2.0 μg/mL, day 4
Peptide text beside a SMILES is read from it. * marks the point of attachment. Cbz = O=C(OCc1ccccc1)*; CH2Cl = ClC*
# label = satisfied if % Growth Relative to Control Cultures >= 20% else not satisfied

These solved cases illustrate the format of a correct answer.
MOLECULE | EXPERIMENTAL SYSTEM | CAT
CC(=O)N[C@@H](Cc1ccccc1)C(=O)NCC(=O)N[C@@H](C)C(=O)N[C@@H](CC(C)C)C(=O)CCl [Ac-Phe-Gly-Ala-LeuCH2 Cl] (Ac-FGAL-CH2Cl) | erythroleukemia cell line K-562 | satisfied
CC(C)CC(NC(=O)OC(C)(C)C)C(=O)CBr (centres unmarked) | erythroleukemia cell line K-562 | not satisfied
CC(C)C[C@H](NC(=O)[C@H](CO)NC(=O)CNC(=O)[C@H](Cc1ccccc1)NC(=O)OCc1ccccc1)C(=O)CCl [Z--Phe-Gly-Ser-LeuCH2 Cl, Z-Phe-Gly-Ser-LeuCH2 Cl] (Cbz-FGSL-CH2Cl) | erythroleukemia cell line K-562 | satisfied
CC(C)C[C@H](NC(=O)OC(C)(C)C)C(=O)CCl | erythroleukemia cell line K-562 | not satisfied

Consider the additional molecule presented here.
Entry CC(C)(C)OC(=O)N[C@@H](Cc1ccc(O)cc1)C(=O)CCl : is its % Growth Relative to Control Cultures no less than 20%?
not satisfied

---

# EXPERIMENTAL SYSTEM: p130^fps (UniProt P00530+P03323)
# Construct: anti-gag serum and Staphylococcus protein A suspension (for FSV-transformed cells); viral gag-derived N-terminal portion (natural gag-fps fusion); expressed in transfected cells; immune complex with anti-gag serum and Staphylococcus protein A
# MEASUREMENT NOTES: Casein phosphorylation by p130fps immunoprecipitates
# Assay type: biochemical, Fujinami sarcoma virus (FSV)
# ASSAY SETUP: casein-phosphorylating activity of p130fps; concentration not given
Square brackets hold non-standard residues; d marks the D form. Peptide text beside a SMILES is read from it. * marks the point of attachment. ξ: configuration not given here. Cbz = O=C(OCc1ccccc1)*; ξL = CC(C)CC(N)C(=O)O; CH2Cl = ClC*
Kindly apply the following: Condition met if Percent Inhibition is less than 20%, Condition not met in every other case.

MOLECULE | EXPERIMENTAL SYSTEM | CAT
CC(C)CC(NC(=O)[C@H](C)NC(=O)[C@H](CC(C)C)NC(=O)[C@H](Cc1ccccc1)NC(=O)OCc1ccccc1)C(=O)CCl (stereo partly drawn) [Z--Phe-Leu-Ala-LeuCH2 Cl, Z-Phe-Leu-Ala-LeuCH2 Cl] (Cbz-FLA[ξL]-CH2Cl) | p130^fps (UniProt P00530+P03323) | Condition not met
CC(C)C[C@H](NC(=O)[C@H](Cc1ccccc1)NC(=O)CNC(=O)[C@H](Cc1ccccc1)NC(=O)OCc1ccccc1)C(=O)CCl [Z--Phe-Gly-Phe-LeuCH2 Cl, Z-Phe-Gly-Phe-LeuCH2 Cl] (Cbz-FGFL-CH2Cl) | p130^fps (UniProt P00530+P03323) | Condition not met
CC(C)CC(NC(=O)C(C)NC(=O)C1CCCN1C(=O)C(Cc1ccccc1)NC(=O)OCc1ccccc1)C(=O)CCl (stereo not drawn) [Z--Phe-Pro-Ala-LeuCH2 Cl] (Cbz-FPAL-CH2Cl; configuration not given here) | p130^fps (UniProt P00530+P03323) | Condition met

# check: Percent Inhibition < 20% for CC(C)CC(NC(=O)C(C)NC(=O)C(CCCCN)NC(=O)C(Cc1ccccc1)NC(=O)OCc1ccccc1)C(=O)CCl (stereo not drawn) [Z--Phe-Lys-Ala-LeuCH2 Cl, Z-Phe-Lys-Ala-LeuCH2 Cl] (Cbz-FKAL-CH2Cl; configuration not given here)
Condition met

# check: Percent Inhibition < 20% for CC(C)CC(NC(=O)OC(C)(C)C)C(=O)CBr (stereo not drawn)
Condition not met

# check: Percent Inhibition < 20% for CC(C)C[C@H](NC(=O)[C@H](C)NC(=O)CNC(=O)[C@H](Cc1ccccc1)NC(=O)OCc1ccccc1)C(=O)CCl [Z--Phe-Gly-Ala-LeuCH2 Cl, Z-Phe-Gly-Ala-LeuCH2 Cl] (Cbz-FGAL-CH2Cl)
Condition not met

# check: Percent Inhibition < 20% for CC(C)CC(NC(=O)C(CCCCN)NC(=O)CNC(=O)C(Cc1ccccc1)NC(=O)OCc1ccccc1)C(=O)CCl (stereo not drawn) [Z--Phe-Gly-Lys-LeuCH2 Cl, Z-Phe-Gly-Lys-LeuCH2 Cl] (Cbz-FGKL-CH2Cl; configuration not given here)
Condition not met
